Test system: OVCAR-8 ovarian
procedure text: NCI tumour cell line growth inhibition, 48 h
TGI values by entry

Consider the following illustrative entries.
-- ask # value lookup — system OVCAR-8 ovarian, readout TGI, item O=C(Nc1nc2ccc(S(=O)(=O)Nc3ccc(C4(C(F)(F)F)CC4)cc3)cc2[nH]1)c1cnccn1
-- reply 31.8 µM

-- ask API: value(readout= TGI, system= OVCAR-8 ovarian, query= CCOC(=O)[C@@H](C)C[C@H](Cc1ccccc1)NC(=O)c1csc([C@@H](C[C@H](C(C)C)N(C)C(=O)CNC(=O)[C@H]2CCCCN2C)OC(C)=O)n1 )
-- reply > 14.3 µM

-- ask Quick check: TGI on OVCAR-8 ovarian, item Cc1nnc(SCc2nc(C#N)c(C#N)nc2CSc2nnc(C)s2)s1 ?
-- reply > 100 µM

-- ask Observed TGI on OVCAR-8 ovarian for CCc1ccc(Oc2c(-c3ccc(OCc4ccc(Cl)cc4)cc3O)nn(C)c2C(F)(F)F)cc1 , please.
-- reply 3.79 µM

-- ask Can you look up TGI on OVCAR-8 ovarian for CC(C)(C)C(=O)c1c(O)c2ccccc2c2ccccc2c1=O ?
-- reply > 100 µM

Further cases:
-- ask Value wanted: TGI (OVCAR-8 ovarian) of entry N=C(N)n1cc(/C=N/N=C(N)N)cn1
-- reply > 100 µM

-- ask Quick check: TGI on OVCAR-8 ovarian, item O=C(CI)NC(=O)NC(=O)NCc1ccccc1 ?
-- reply 19.6 µM

-- ask Value wanted: TGI (OVCAR-8 ovarian) of entry OC1=CN=C(c2ccccc2)Oc2ccccc21
-- reply > 100 µM

-- ask Look up TGI with OVCAR-8 ovarian for this compound: O=C(Nc1nc(=S)[nH][nH]1)C(=O)C(c1cnc2ccc([N+](=O)[O-])cc2n1)[N+](=O)[O-] (stereo not given)
-- reply > 100 µM

-- ask API: value(readout= TGI, system= OVCAR-8 ovarian, query= C=C1C(=O)O[C@@H]2C[C@@]3(C)[C@H](O)CCC(=C)[C@@H]3C[C@H]12 )
-- reply 23.3 µM

-- ask Find TGI (OVCAR-8 ovarian) for the entry COc1ccc(N(CC(=O)O)N=O)cc1
-- reply > 100 µM
